# experimental system: Inadl_2, Q8NI35
# Sequence (Q8NI35 238-335): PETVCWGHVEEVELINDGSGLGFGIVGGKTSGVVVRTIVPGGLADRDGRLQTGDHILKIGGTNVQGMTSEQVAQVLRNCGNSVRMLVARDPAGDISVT
# experimental details: holdup assay
# Design: key: below the threshold = too weak to quantify, mostly under pKd 3.1 to 4
# measurement parameters: plain residues with an end cap or a label only (N-terminal biotin on a linker: ado-ado)
measurement type: pKd

                         binder               result
0     TNSKQGETTV [FZD1, Q9UP38]  below the threshold
1  KKTPVSRSHL [SLC22A3, O75751]  below the threshold
2   KIEDVEITLV [FCHSD2, O94868]                  4.3
3   HLSTRQGTCV [ATRNL1, Q5VV63]  below the threshold

Origin of measurements: paper PMC9482650
